SYSTEM NAME: T1, human Claudin-1 (human, UniProt O95832 1-211)
T1 construct: whole, on cells; also called CLDN1; human CLDN1
T1 sequence (looked up): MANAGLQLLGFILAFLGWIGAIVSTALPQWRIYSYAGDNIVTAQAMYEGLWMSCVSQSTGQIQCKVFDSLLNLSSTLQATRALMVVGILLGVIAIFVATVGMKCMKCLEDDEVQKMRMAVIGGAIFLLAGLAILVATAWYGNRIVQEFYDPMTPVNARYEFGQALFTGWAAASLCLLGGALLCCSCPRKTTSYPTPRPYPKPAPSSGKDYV
MEASUREMENT PROTOCOL: flow cytometry on Huh7.5.1 and HepG2 cells with surface CLDN1 (FIG. 2A)
QUANTITY MEASURED: binding result

- BINDER: "rat anti-CLDN1 mAb OM-7D3-B3 (antibody, V domains shown, Hybridoma antibody, rat IgG2b with rat kappa light chain; also called rat OM-7D3-B3; parental rat antibody) VH: EVQLVESGGGLVQPGRSLKLSCLGSGFSFSSYGMNWIRQAPGKGLEWVASISPSGSYFYYADSVKGRFTISRENAKNTLYLQMTSLRAEDTALYYCARLPGFNPPFDHWGQGVVVTVSS VL: NTVMTQSPTSMFMSVGDRVTMNCKASQNVGGNVDWYQWKPGQSPKLLMYGASNRYTGVPDRFRGSGSGTDFTLTISNMQTEDLAVYYCLQYKNNPWTFGGGTKVELK"
  READING: "binds"
- BINDER: "humanized anti-CLDN1 mAb H3L2 (antibody, V domains shown, Full-length antibody made in CHO cells; variable domains fused to the constant domains of human IgG4 heavy and human kappa light chains) VH: QVQLVESGGGVVQPGRSLRLSCLGSGFSFSSYGMNWVRQAPGKGLEWVASISPSGSYFYYADSVKGRFTISRDNSKNTLYLQMTSLRAEDTAIYYCARLPGFNPPFDHWGQGTLVTVSS VL: DIQMTQSPSSLSASVGDRVTITCKASQNVGGNVDWYQWKPGKAPKLLIYGASNRYTGVPSRFRGSGSGTDFTLTISSLQPEDVATYYCLQYKNNPWTFGQGTKVEIK"
  READING: "binds"
- BINDER: "humanized anti-CLDN1 mAb H2L3 (antibody, V domains shown, Full-length antibody made in CHO cells; variable domains fused to the constant domains of human IgG4 heavy and human kappa light chains) VH: QVQLVESGGGVVQPGRSLRLSCAASGFSFSSYGMNWVRQAPGKGLEWVTSISPSGSYFYYADSVKGRFTISRDNSKNTLYLQMNSLRAEDTAIYYCARLPGFNPPFDHWGQGTLVTVSS VL: DIQMTQSPSSLSASVGDRVTITCKASQNVGGNVDWYQWKPGKAPKLLIYGASNRYTGVPDRFRGSGSGTDFTLTISSLQPEDVATYYCLQYKNNPWTFGGGTKVEIK"
  READING: "binds"
